Recorded Kd, one value per entry.
# test_system: CDK2 (human) (UniProt P24941)
# test_description: Enzyme Assay

The following compounds have reported results that may help.
COC[C@@H]1CCCN1c1ncnc(Nc2cccc(CS(N)(=O)=O)c2)n1    > 10 µM
NS(=O)(=O)Cc1cccc(Nc2ncnc(N3CCC[C@H]3CO)n2)c1    > 10 µM
NS(=O)(=O)Cc1cccc(Nc2ncnc(N3CCC[C@@H]3CN3CCCC3)n2)c1    > 10 µM
COC[C@H]1CCCCN1c1ncnc(Nc2cccc(CS(N)(=O)=O)c2)n1    > 10 µM

Please find the next compound below.
Query: Reported Kd, compound NS(=O)(=O)Cc1cccc(Nc2ncnc(N3CCc4ncsc4C3)n2)c1 : ____
Result: < 0.1 µM

* * *

# test_system: CDK2 (human) (UniProt P24941)
# test_description: Enzyme Assay
pKd: −log10 of the molar value.
Recorded pKd, one value per entry.

The following molecules have reported results that may help.
NS(=O)(=O)Cc1cccc(Nc2ncnc(N3Cc4cn[nH]c4C3)n2)c1    6.00 to 7.00
NS(=O)(=O)Cc1cccc(Nc2ncnc(N3CCc4ncccc4C3)n2)c1    6.00 to 7.00
NS(=O)(=O)Cc1cccc(Nc2ncnc(N3CCCC3c3ccccc3)n2)c1 (configuration not stated)    < 5.00

Query: Reported pKd, molecule NS(=O)(=O)Cc1cccc(Nc2ncnc(N3CCCn4nccc43)n2)c1 : ____
Result: > 7.00

Query: Now the molecule NS(=O)(=O)Cc1cccc(Nc2ncnc(N3CCCCC3)n2)c1
Result: < 5.00

Query: Now the molecule CN(C)CCC1CCCCN1c1ncnc(Nc2cccc(CS(N)(=O)=O)c2)n1 (configuration not stated)
Result: < 5.00

Query: Now the molecule NS(=O)(=O)Cc1cccc(Nc2ncnc(N3CCc4ncsc4C3)n2)c1
Result: > 7.00

* * *

# test_system: UniProt P24941
# test_description: Enzyme Assay
assay_metric: Kd

NS(=O)(=O)Cc1cccc(Nc2ncnc(N3CCCCC3)n2)c1    > 10000 nM
NS(=O)(=O)Cc1cccc(Nc2ncnc(N3CCC[C@@H]3CO)n2)c1    > 10000 nM
NS(=O)(=O)Cc1cccc(Nc2ncnc(N3CCc4ccccc43)n2)c1    100 to 1000 nM
NS(=O)(=O)Cc1cccc(Nc2ncnc(N3Cc4ccncc4C3)n2)c1    100 to 1000 nM
NS(=O)(=O)Cc1cccc(Nc2ncnc(N3CCCc4ccccc43)n2)c1    100 to 1000 nM

Query: Reported Kd, compound NS(=O)(=O)Cc1cccc(Nc2ncnc(N3CCC[C@@H]3COCc3ccccc3)n2)c1 : ____
Result: > 10000 nM

Query: Now the compound NS(=O)(=O)Cc1cccc(Nc2ncnc(N3CCCn4nccc43)n2)c1
Result: < 100 nM

Query: Now the compound NS(=O)(=O)Cc1cccc(Nc2ncnc(N3CCc4nc[nH]c4C3)n2)c1
Result: < 100 nM

Query: Now the compound COC[C@H]1CCN1c1ncnc(Nc2cccc(CS(N)(=O)=O)c2)n1
Result: > 10000 nM

Query: Now the compound NS(=O)(=O)Cc1cccc(Nc2ncnc(N3CCc4ncccc4C3)n2)c1
Result: 100 to 1000 nM
